- SYSTEM TESTED: Human PKMYT1 (Homo sapiens, UniProt Q99640)
- Construct: Human PKMYT1 75-362 was cloned as a TEV cleavable 6xHis fusion; 6xHis (TEV cleavable) (cleaved yes); made in house; host or cells: bacterial cells
- Sequence (Q99640 75-362): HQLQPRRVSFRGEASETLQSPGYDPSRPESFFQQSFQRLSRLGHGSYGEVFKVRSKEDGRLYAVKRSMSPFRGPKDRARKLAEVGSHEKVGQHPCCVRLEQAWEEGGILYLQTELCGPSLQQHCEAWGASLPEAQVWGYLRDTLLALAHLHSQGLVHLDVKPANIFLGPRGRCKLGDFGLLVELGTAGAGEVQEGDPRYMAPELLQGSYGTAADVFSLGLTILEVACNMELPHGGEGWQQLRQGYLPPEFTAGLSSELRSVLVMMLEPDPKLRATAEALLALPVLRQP
- PROTOCOL DESCRIPTION: PKMYT1 biochemical ADP-Glo enzymatic assay
- RUN CONDITIONS: ADP-Glo; 15 nM PKMYT1 kinase domain, 500 µM ATP, 60 minutes at 26° C.; banded
MEASURED ATTRIBUTE: IC50

Consider the worked cases shown below.
COMPOUND STRING | IC50
Cc1cn(C)nc1Nc1ncc(C(=O)Nc2c(C)ccc(O)c2C)s1 | < 0.05 µM
Cc1ccc(O)c(C)c1NC(=O)c1cnc(Nc2ccn(C)n2)s1 | 0.05 to 1 µM
Cc1ccc(O)c(C)c1NC(=O)c1cnc(Nc2ccn([C@@H]3CCN(C(=O)OC(C)(C)C)C3)n2)s1 | 0.05 to 1 µM
Cc1cn(C2COC2)nc1Nc1ncc(C(=O)Nc2c(C)ccc(O)c2C)s1 | < 0.05 µM
Cc1ccc(O)c(C)c1NC(=O)c1cnc(Nc2ccn(CCCC(=O)O)n2)s1 | < 0.05 µM

Exercise: What value of IC50 on Human PKMYT1 (Homo sapiens, UniProt Q99640) does Cc1ccc(O)c(C)c1NC(=O)c1cnc(Nc2ccn([C@@H]3CCN(C(=O)C4CCOCC4)C3)n2)s1 have?
Solution: 0.05 to 1 µM

Exercise: What value of IC50 on Human PKMYT1 (Homo sapiens, UniProt Q99640) does CCOC(=O)CCCn1ccc(Nc2ncc(C(=O)Nc3c(C)ccc(O)c3C)s2)n1 have?
Solution: 0.05 to 1 µM

Exercise: What value of IC50 on Human PKMYT1 (Homo sapiens, UniProt Q99640) does Cc1ccc(O)c(C)c1NC(=O)c1cnc(Nc2ccc(S(=O)(=O)C(F)(F)F)cc2)s1 have?
Solution: 1 to 11 µM
